# Tested on: MALME-3M melanoma
# experimental.protocol: NCI tumour cell line growth inhibition, 48 h; in the data active = GI50 below about 0.43 µM; inactive = the rest
Please reply with one of these outcomes: 1 = active, 0 = inactive

Query: Could you kindly confirm the outcome this assay logged for O=C(Nc1cccc(-n2cc(-c3ccncc3)c(-c3ccc(O)c(Cl)c3)n2)c1)Nc1ccc(Cl)c(C(F)(F)F)c1 ?
Reply: 0

Query: Given Cc1cccc2c(=O)c3c(sc12)c(NCCN)nc1ccccc13 , state the outcome it received in this test.
Reply: 0

Query: So what was the verdict on COc1cc2c3c(n(CCCN4CCOCC4)c(=O)c2cc1OC)-c1cc2c(cc1C3=O)OCO2 in this test?
Reply: 0

Query: // param item: CN(C)CCOc1cccc(NC2=C(Cl)C(=O)C(Nc3cccc(OCCN(C)C)c3)=C(Cl)C2=O)c1 ; yields the recorded call
Reply: 1

Query: # outcome recorded in this test, key = O=C(Nc1cccc2ccccc12)c1cc2ccccc2cc1O
Reply: 0

Query: Record request — test call for Cc1cc(Cl)ccc1Nc1nc(C(F)(F)F)ccc1C(=O)N/N=C/c1c(Cl)cccc1Cl
Reply: 0
